assay-comment: physchem
stated-conditions: pH 1.8, simulated gastric fluid
attribute-measured: solubility (µg/mL)
Numbers only here, please. The scale is µg/mL.

Which solubility reading was recorded for the compound CC(C)Cc1ccc(C(C)C(=O)O)cc1 (stereo not shown) ?
53
